Method: total protein half-life in vivo (active degradation + dilution); higher = more stable protein
Assay Setup: wild type E. coli NCM3722; growth: C-lim chemostat; doubling time 6 h
Lab note: anything with total protein half-life in vivo at or over 6 h counts as criterion met; the rest go in criterion not met.

{"Monomer Sequence": "MSVIETATVPLAQQQADALLNVKDLRVTFSTPDGDVTAVNDLNFSLRAGETLGIVGESGSGKSQTAFALMGLLAANGRIGGSATFNGREILNLPEHELNKLRAEQISMIFQDPMTSLNPYMRVGEQLMEVLMLHKNMSKAEAFEESVRMLDAVKMPEARKRMKMYPHEFSGGMRQRVMIAMALLCRPKLLIADEPTTALDVTVQAQIMTLLNELKREFNTAIIMITHDLVVVAGICDKVLVMYAGRTMEYGNARDVFYQPVHPYSIGLLNAVPRLDAEGETMLTIPGNPPNLLRLPKGCPFQPRCPHAMEICSSAPPLEEFTPGRLRACFKPVEELL", "Discrete Label": "criterion not met"}

Quick check, total protein half-life in vivo >= 6 h? MPYKTKSDLPESVKHVLPSHAQDIYKEAFNSAWDQYKDKEDRRDDASREETAHKVAWAAVKHEYAKGDDDKWHKKS [P0AE63]
criterion not met

Same read-out for MNEFSILCRVLGSLYYRQPQDPLLVPLFTLIREGKLAANWPLEQDELLTRLQKSCDMTQVSADYNALFIGDECAVPPYRSAWVEGATEAEVRAFLSERGMPLADTPADHIGTLLLAASWLEDQSTEDESEALETLFSEYLLPWCGAFLGKVEAHATTPFWRTMAPLTRDAISAMWDELEEDSEE ?
criterion met

Please give the result for MIDDDGYRPNVGIVICNRQGQVMWARRFGQHSWQFPQGGINPGESAEQAMYRELFEEVGLSRKDVRILASTRNWLRYKLPKRLVRWDTKPVCIGQKQKWFLLQLVSGDAEINMQTSSTPEFDGWRWVSYWYPVRQVVSFKRDVYRRVMKEFASVVMSLQENTPKPQNASAYRRKRG [P0A776] too.
criterion not met

Request: MTMNITSKQMEITPAIRQHVADRLAKLEKWQTHLINPHIILSKEPQGFVADATINTPNGVLVASGKHEDMYTAINELINKLERQLNKLQHKGEARRAATSVKDANFVEEVEEE [P0AD49]
criterion not met

Continue with MPKFRVSLFSLALMLAVPFAPQAVAKTAAATTASQPEIASGSAMIVDLNTNKVIYSNHPDLVRPIASISKLMTAMVVLDARLPLDEKLKVDISQTPEMKGVYSRVRLNSEISRKDMLLLALMSSENRAAASLAHHYPGGYKAFIKAMNAKAKSLGMNNTRFVEPTGLSVHNVSTARDLTKLLIASKQYPLIGQLSTTREDMATFSNPTYTLPFRNTNHLVYRDNWNIQLTKTGFTNAAGHCLVMRTVINNKPVALVVMDAFGKYTHFADASRLRTWIETGKVMPVPAAALSYKKQKAAQMAAAGQTAQND [P0AFI5]
criterion not met

Thanks! And MQLNITGNNVEITEALREFVTAKFAKLEQYFDRINQVYVVLKVEKVTHTSDATLHVNGGEIHASAEGQDMYAAIDGLIDKLARQLTKHKDKLKQH [P0AFX0] ?
criterion not met
